assay: total protein half-life in vivo (active degradation + dilution); higher = more stable protein; conditions: wild type E. coli NCM3722; growth: N-lim chemostat; doubling time 12 h
Listed next: entries and their corresponding total protein half-life in vivo.
Numbers only; they are read as h.

Look over these answered cases.
QUERY SEQUENCE	UNIT NAME	VALUE MEASURED
MMVIRPVERSDVSALMQLASKTGGGLTSLPANEATLSARIERAIKTWQGELPKSEQGYVFVLEDSETGTVAGICAIEVAVGLNDPWYNYRVGTLVHASKELNVYNALPTLFLSNDHTGSSELCTLFLDPDWRKEGNGYLLSKSRFMFMAAFRDKFNDKVVAEMRGVIDEHGYSPFWQSLGKRFFSMDFSRADFLCGTGQKAFIAELMPKHPIYTHFLSQEAQDVIGQVHPQTAPARAVLEKEGFRYRNYIDIFDGGPTLECDIDRVRAIRKSRLVEVAEGQPAQGDFPACLVANENYHHFRVVLVRTDPATERLILTAAQLDALKCHAGDRVRLVRLCAEEKTA [P0AE37]	h	3.22
MDLRDLKTFLHLAESRHFGRSARAMHVSPSTLSRQIQRLEEDLGQPLFVRDNRTVTLTEAGEELRVFAQQTLLQYQQLRHTIDQQGPSLSGELHIFCSVTAAYSHLPPILDRFRAEHPSVEIKLTTGDAADAMEKVVTGEADLAIAGKPETLPGAVAFSMLENLAVVLIAPALPCPVRNQVSVEKPDWSTVPFIMADQGPVRRRIELWFRRNKISNPMIYATVGGHEAMVSMVALGCGVALLPEVVLENSPEPVRNRVMILERSDEKTPFELGVCAQKKRLHEPLIEAFWKILPNHK	h	10.9
MKKLKLHGFNNLTKSLSFCIYDICYAKTAEERDGYIAYIDELYNANRLTEILSETCSIIGANILNIARQDYEPQGASVTILVSEEPVDPKLIDKTEHPGPLPETVVAHLDKSHICVHTYPESHPEGGLCTFRADIEVSTCGVISPLKALNYLIHQLESDIVTIDYRVRGFTRDINGMKHFIDHEINSIQNFMSDDMKALYDMVDVNVYQENIFHTKMLLKEFDLKHYMFHTKPEDLTDSERQEITAALWKEMREIYYGRNMPAV [P0A7F6]	h	4.17
MQEYTNHSDTTFALRNISFRVPGRTLLHPLSLTFPAGKVTGLIGHNGSGKSTLLKMLGRHQPPSEGEILLDAQPLESWSSKAFARKVAYLPQQLPPAEGMTVRELVAIGRYPWHGALGRFGAADREKVEEAISLVGLKPLAHRLVDSLSGGERQRAWIAMLVAQDSRCLLLDEPTSALDIAHQVDVLSLVHRLSQERGLTVIAVLHDINMAARYCDYLVALRGGEMIAQGTPAEIMRGETLEMIYGIPMGILPHPAGAAPVSFVY	h	10.7
MKKMLLATALALLITGCAQQTFTVQNKQTAVAPKETITHHFFVSGIGQKKTVDAAKICGGAENVVKTETQQTFVNGLLGFITLGIYTPLEARVYCSK	h	12.4

Give a short answer stating reported total protein half-life in vivo for MKIISKMLVGALALAVTNVYAAELMTKAEFEKVESQYEKIGDISTSNEMSTADAKEDLIKKADEKGADVLVLTSGQTDNKIHGTANIYKKK .
9.55

Annotate the sequence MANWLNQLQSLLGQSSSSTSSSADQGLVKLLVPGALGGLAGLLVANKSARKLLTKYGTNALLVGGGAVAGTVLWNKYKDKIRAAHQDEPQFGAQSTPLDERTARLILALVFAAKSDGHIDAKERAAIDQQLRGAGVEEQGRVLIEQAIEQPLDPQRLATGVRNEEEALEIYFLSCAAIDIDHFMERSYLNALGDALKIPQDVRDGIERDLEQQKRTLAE with its measured total protein half-life in vivo.
8.34
